- target_or_system: recombinant CAIX extra-cellular domain (UniProt Q16790 38-414)
- protocol_description: competitive ELISA (Friguet), soluble CAIX ECD against coated CAIX ECD
- Description: To determine the binding affinity of the anti-CAIX scFvs, competitive ELISA was performed. The CAIX ECD fragment proteins in 2-fold serial dilution (100-13 μg/ml) were pre-incubated with anti-CAIX scFvs (NAVICA9S1: 0.62 μg/ml, NAVICA9S2: 0.32 μg/ml, NAVICA9L2: 0.16 μg/ml, NAVICA9L3: 0.32 μg/ml) at 1:1 volume ratio at room temperature for 1 hour. The mixtures were then added into ELISA plate coated with CAIX ECD fragment proteins (0.25 or 0.5 μg/well). […]
assay_metric: pKd
Schema: pKd number; meaning minus log10 of the concentration expressed in molar units.

Example entries and their recorded answers appear below.
[[record]]
binder = "NAVICA9L2 (scFv, V domains shown, Chicken scFv; also called anti-CAIX scFv NAVICA9L2; clone NAVICA9L2; not shown: linker; tags from the pComb3X vector (purified on Ni2+ Sepharose, detected with anti-HA)) VH: AVTLDESGGGLQTPGGGLSLVCKASGFTFSSYAIQWVRQAPGKGLEWVAGISDDGSWTGYGAAVKGRATISRDNGQSTMRLQLNNLRAEDTGIYYCAKGAGTGYCANRSFGCASTIDAWGHGTEVIVSS VL: ALTQPSSVSANLGETVEITCSGSRGSYGWYQQKSPGSAPVTVIYYNVKRPSDIPSRFSGSKSGSTGTLTITGVQAEDEAVYYCGSADRSGAGIFGAGTTLTVL"
reported = 6.85

[[record]]
binder = "NAVICA9S2 (scFv, V domains shown, Chicken scFv; also called anti-CAIX scFv NAVICA9S2; clone NAVICA9S2; not shown: linker; tags from the pComb3X vector (purified on Ni2+ Sepharose, detected with anti-HA)) VH: AVTLDESGGGLQTPRGALSLVCKASGFTFSSFNMFWVRQAPGKGLEYVAAISSDGSRSRYGSAVQGRATISRDNGQSTVRLQLNSLRAEDTGTYYCAKRPYSGCTSNNFCFNAAYIDVWGHGTEVIVSS VL: ALTQPSSVSANLGETVEITCSGSSGSYGWYQQKSPGSAPVTVIYYNDKRPSDIPSRFSGSKSGSTGTLTITGVQAEDEAVYYCGSADRSGAGIFGAGTTLTVL"
reported = 7.94

[[record]]
binder = "NAVICA9S1 (scFv, V domains shown, Chicken scFv from phage display, expressed in E. coli; also called anti-CAIX scFv NAVICA9S1; clone NAVICA9S1; not shown: linker; tags from the pComb3X vector (purified on Ni2+ Sepharose, detected with anti-HA)) VH: AVTLDESEGGLQTPGGALSLVCKASGFTFSSYAMNWVRQAPGKGLEFVAGITNTGSSAGYGAAVKGRATISRDNGQSTVRLQLNNLRAEDTATYFCTKSYGGWCDHACAPDDIDTWGHGTEVIVSS VL: ALTQPSSVSANPGETVKITCSGGGKNYGWYQQKSPGSAPVTVIYLNDKRPSNIPSRFSGSKSGSTHTLTITGVQAEDEAVYFCGSRDSSPTFGAGTTLTVL"
reported = 7.19


Moving on to the next binder.
Prompt: Look at this binder and give its reported pKd. NAVICA9L3 (scFv, V domains shown, Chicken scFv; also called anti-CAIX scFv NAVICA9L3; clone NAVICA9L3; not shown: linker; tags from the pComb3X vector (purified on Ni2+ Sepharose, detected with anti-HA)) VH: AVTLDESGGGLQTPGGALSLVCKASGFTFSSFNMFWVRQAPGKGLEYVAAISSDGSRSRYGSAVQGRATISRDNGQSTVRLQLNSLRAEDTGTYYCAKRPYSGCTSNNFCFNAAYIDVWGHGTEVIVSS VL: ALTQPSSVSANLGETVEITCSGSSGSYGWYQQKSPGSAPVTVIYYNDKRPSDIPSRFSGSKSGSTGTLTITGVQAEDEAVYYCGSADRSGAGIFGAGTTLTVL
Completion: 8.03

Values compiled from patent US20220049012A1.
